Source listed as the supplement of paper PMC3724861.

Tested on: Caupolican (Caup) homeodomain DNA-binding domain
Sequence: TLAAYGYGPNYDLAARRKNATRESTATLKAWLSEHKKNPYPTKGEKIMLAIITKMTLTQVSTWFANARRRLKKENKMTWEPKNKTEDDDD
test-method-notes: PBM E-score (8-mer, recovered from the published 9-mer minima) (E-score (dimensionless, -0.5 to 0.5)); higher = stronger relative binding preference, active = 0.31 or more
Many of the other results were omitted from the sample, so hits are more common in it than they were. No count for the full screen is at hand.
Is PBM E-score at least 0.2? Then T. If not, F.

Query: Please check the record `GACACATA` and state if its PBM E-score is at or above 0.2.
Result: T

Query: Decide: is the reported value of PBM E-score for `AACACACG` equal to or greater than 0.2?
Result: T

Query: Test whether the sequence `CCCCAGCG` records PBM E-score of 0.2 or higher.
Result: F

Query: Form field: PBM E-score at least 0.2? Entry: `CACACATA`
Result: F

Query: Please check the record `AGCACATA` and state if its PBM E-score is at or above 0.2.
Result: F

Query: Does the sequence `CAAAGTTC` have recorded PBM E-score that is 0.2 or more?
Result: F

Query: Determine whether this sequence has PBM E-score no lower than 0.2: `GGTGTTTA`
Result: F

Query: Quick check: does `CGATATAC` have PBM E-score greater than or equal to 0.2?
Result: F

Query: Entry `ACCATGAA` : is its PBM E-score no less than 0.2?
Result: F

Query: Assess whether reported PBM E-score for `AGTGTTAA` sits at 0.2 or higher.
Result: F

Query: For this sequence, is measured PBM E-score 0.2 or higher? `GCCATGAC`
Result: F

Query: Reported PBM E-score at or above 0.2? `CTATTAGC`
Result: F

Query: Quick check: does `AGTGTTTA` have PBM E-score greater than or equal to 0.2?
Result: F

Query: Dear colleague, could you confirm whether `CGTGTTAC` has PBM E-score at or above 0.2?
Result: T

Query: # bool: PBM E-score of `AACACATT` >= 0.2
Result: T

Query: Is the recorded value of PBM E-score equal to or greater than 0.2 for this sequence? `GGCATGAA`
Result: F

Query: Kindly determine if PBM E-score recorded for `ACCTACCT` is above or exactly 0.2.
Result: F

Query: Dear colleague, could you confirm whether `AACATGAA` has PBM E-score at or above 0.2?
Result: T

Query: Is PBM E-score at least 0.2? Consider `GACATGAA`
Result: T

Query: # bool: PBM E-score of `GGTGTTAA` >= 0.2
Result: F

Query: Decide: is the reported value of PBM E-score for `GTCATGAA` equal to or greater than 0.2?
Result: F

Query: Threshold query (PBM E-score >= 0.2) on `TGCATGAA`
Result: F

====

Can you tell me PBM E-score for the items I'm about to list?
System: Caupolican (Caup) homeodomain DNA-binding domain
Sequence: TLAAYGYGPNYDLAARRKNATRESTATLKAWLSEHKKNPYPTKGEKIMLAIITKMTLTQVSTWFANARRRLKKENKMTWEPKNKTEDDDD
test-method-notes: PBM E-score (8-mer, recovered from the published 9-mer minima) (E-score (dimensionless, -0.5 to 0.5)); higher = stronger relative binding preference, active = 0.31 or more
The sample as a whole holds a higher share of hits than the screen did. How many sequences the whole screen found active is unknown.

Query: Given `ACATGGCA` , respond with its PBM E-score.
Result: 0.307 (inactive)

Query: Given the sequence `ACAAGTAC` , write its reported PBM E-score.
Result: 0.35 (active)

Query: Name the recorded PBM E-score of the sequence listed here: `ACGAACCT`
Result: -0.0743 (inactive)

Query: Consider the sequence `GAGATGTA` and give its recorded PBM E-score.
Result: 0.329 (active)

Query: Return value of PBM E-score for input `AACCCGCG` , no commentary.
Result: -0.0635 (inactive)

Query: For `ACATGTCA` , write its PBM E-score.
Result: 0.461 (active)

Query: Kindly indicate its recorded PBM E-score. Item: `ACAAGGAG`
Result: 0.224 (inactive)

Query: Specify reported PBM E-score for the sequence shown: `AGATGTCC`
Result: 0.234 (inactive)

Query: Look up and report measured PBM E-score for this entry: `CAGATGTA`
Result: 0.247 (inactive)

Query: Tell me measured PBM E-score for `CCCTGTCG` please.
Result: -0.0227 (inactive)

Query: Fill in PBM E-score for record `CCAAGTAC`
Result: 0.0484 (inactive)

====

System: Caupolican (Caup) homeodomain DNA-binding domain
Sequence: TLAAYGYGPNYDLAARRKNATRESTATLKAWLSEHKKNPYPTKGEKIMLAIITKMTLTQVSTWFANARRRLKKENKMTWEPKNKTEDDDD
test-method-notes: PBM E-score (8-mer, recovered from the published 9-mer minima) (E-score (dimensionless, -0.5 to 0.5)); Drosophila protein; higher = stronger relative binding preference, active = 0.31 or more
The full list was thinned out, with hits kept by preference. How many sequences the whole screen found active is unknown.
Valid outcomes are listed here; reply with one: true = active, false = inactive

Query: Short answer needed: outcome of this test for `CCAGTACA` ?
Result: false

Query: Name the outcome recorded for `CCATGTGC` in the assay.
Result: false

Query: Hi, do you know how `ACCCAACT` came out in this test?
Result: false

Query: Kindly provide the recorded test outcome for the following sequence: `CACTCTGA`
Result: false

Query: What did this assay record as the result for `ACCTGCAA` ?
Result: false

Query: Per the assay record, what outcome was assigned to `ACACCACC` ?
Result: false

Query: Record lookup: outcome of this test for `ACAACAGG` ?
Result: false

Query: Could you check what this test reported for `AACAAAGA` ?
Result: false

Query: Please share the test call associated with `GCATCTAC` .
Result: false

Query: Assay outcome for `CTCGCACA` : what was it?
Result: false

Query: What call does the record list for `ATCATGTA` ?
Result: true

Query: Per the records of this test, what outcome belongs to `CTCTGTAA` ?
Result: false

Query: In this assay, the call recorded for `GTCATGGA` was what?
Result: false

Query: Given `AAACAACC` , state the outcome it received in this test.
Result: false

Query: Hey, what did the test say about `TATGTCAA` ?
Result: true

Query: Hi team, can someone confirm the assay call for `GCATGTGA` ?
Result: false

Query: Which result was noted for this sequence in the test: `GATGTCCA`
Result: false

Query: Short answer needed: outcome of this test for `ATCGACGG` ?
Result: false

Query: Outcome logged for `CTATGTAA` in this assay:
Result: true

Query: Status in this test for `CTCATGTA` ?
Result: true

Query: // outcome(item) with item = `GTCATGTA`
Result: true

Query: // return assay outcome for `AAACAACT`
Result: false

Query: Which result was noted for this sequence in the test: `CGGGACAA`
Result: false

Query: Short answer needed: outcome of this test for `TACAAAAA` ?
Result: false

Query: I'd appreciate the recorded outcome for `ACATGTGG` from this test.
Result: false

Query: What outcome does the record of this test show for `AACAAAAA` ?
Result: false

Query: # lookup: test call for `AGGCAATA`
Result: false

Query: What was the test verdict on `AACCACAC` ?
Result: false

Query: // return assay outcome for `ATATATGG`
Result: false

Query: Hi team, can someone confirm the assay call for `AGCGGTTA` ?
Result: false

Query: Please indicate how the test categorized `CTTCCAAG` .
Result: false

Query: How was `GATGCATA` classified in this test?
Result: false

Query: Field: outcome | Entry: `CACAAGAC`
Result: false

Query: Recorded test outcome, item `ATATGCAA`
Result: false

Query: Assay outcome for `AACAAGAA` : what was it?
Result: true

Query: Hey, what did the test say about `CTATGTGA` ?
Result: false

Query: Per the records of this test, what outcome belongs to `CGACAAGA` ?
Result: true

Query: Could you kindly confirm the outcome this assay logged for `TAACAACA` ?
Result: true

Query: Which outcome did this test record for the sequence `GGATCGCA` ?
Result: false

Query: Fill in: this test's call for `GACAAGAA` is ___
Result: false

Query: What was the test verdict on `AAAGGTCT` ?
Result: false

Query: What classification did `GAACAACA` end up with in this test?
Result: false

Query: # outcome recorded in this test, key = `GATAGATA`
Result: false

Query: For this sequence, state the assay outcome: `ATGTCTTA`
Result: false

Query: Assay result, entry `AACTATTC` — outcome?
Result: false

Query: // param item: `GGGATTGA` ; yields the recorded call
Result: false

Query: Tell me the assay call for `ACAGTACG` please.
Result: false

Query: Hello, I am checking results. What call was entered for `GGACAACA` ?
Result: true

Query: Fill in: this test's call for `CCATGTGA` is ___
Result: false

Query: Each sequence tested received a call. Report the one for `CACATACA` .
Result: false

Query: Hi, do you know how `ATCATGAC` came out in this test?
Result: false

Query: Tell me the recorded outcome of this test for `GACAAGAC` .
Result: true

Query: Fill in: this test's call for `AATGTCAA` is ___
Result: false

Query: Assay result, entry `GATGTCAA` — outcome?
Result: true

Query: What classification did `CGCTCAGC` end up with in this test?
Result: false

Query: Assay result, entry `ACAACATC` — outcome?
Result: true

Query: Dear all, I need the recorded test outcome for `CTCATGGA` , thank you.
Result: false

Query: Each sequence tested received a call. Report the one for `TAACAAAA` .
Result: false

Query: Recorded test call requested for `GGGCGCAA`
Result: false

Query: Lab log entry: `ATCAGTCC` — outcome as called in the assay?
Result: false

Query: Test call, this sequence: `GGACAACC`
Result: false

Query: Hi team, can someone confirm the assay call for `CGTCTAAG` ?
Result: false

Query: Short answer needed: outcome of this test for `AACATACG` ?
Result: false

Query: Called result for `TACAAGAA`
Result: true

Query: Answer briefly: the call reported for `AAGTCAGG` in this assay.
Result: false

Query: Tell me the recorded outcome of this test for `ATCATGTG` .
Result: false

Query: Record request — test call for `AACAAGAC`
Result: true

Query: Name the outcome recorded for `CATAGAGA` in the assay.
Result: false

Query: Dear colleague, could you share the recorded outcome for `AAAACAGT` when you have a moment?
Result: false

Query: Given `AAATTGGG` , state the outcome it received in this test.
Result: false

Query: Given `ACAACATG` , state the outcome it received in this test.
Result: true

Query: What did the test return for `ATAGCTCG` ?
Result: false

Query: Record lookup: outcome of this test for `GCAGTACA` ?
Result: false

Query: Which outcome did this test record for the sequence `ACATGTGA` ?
Result: true

Query: Hi, sorry to bother you, what did the test record for `CCGTAAAA` ?
Result: false

Query: For `CTCATGTC` , what call appears in the results of this test?
Result: false

Query: Please state the recorded outcome for this sequence: `CGCAGGTA`
Result: false

Query: Per the records of this test, what outcome belongs to `AGACAACC` ?
Result: false

Query: Called result for `AAGGCGCG`
Result: false

Query: Per the records of this test, what outcome belongs to `ACATGTGC` ?
Result: true

Query: Which result was noted for this sequence in the test: `GGACAAGA`
Result: false

Query: Record lookup: outcome of this test for `GTATGTGA` ?
Result: false

Query: Hi, do you know how `CGACCGCA` came out in this test?
Result: false

Query: Could you check what this test reported for `ACAACAGC` ?
Result: false

Query: Kindly provide the recorded test outcome for the following sequence: `ACAACTTG`
Result: false

Query: // param item: `GACAAAAC` ; yields the recorded call
Result: false

Query: Please let me know the test result on file for `TCTGTCAA` .
Result: false

Query: # lookup: test call for `CGTCGACA`
Result: false

Query: What did this assay record as the result for `TCAGTACA` ?
Result: true

Query: Assay outcome for `CAAATAGG` : what was it?
Result: false

Query: Test call for this sequence, please: `CCAACATA`
Result: false
